- tgt: T1, recombinant human TL1A (human, UniProt O95150 71-251)
- T1 construct: The ELISA method says only 'recombinant TL1A' coated on plates; homotrimeric cytokine; also called TNFSF15; recombinant TL1A
- T1 chain: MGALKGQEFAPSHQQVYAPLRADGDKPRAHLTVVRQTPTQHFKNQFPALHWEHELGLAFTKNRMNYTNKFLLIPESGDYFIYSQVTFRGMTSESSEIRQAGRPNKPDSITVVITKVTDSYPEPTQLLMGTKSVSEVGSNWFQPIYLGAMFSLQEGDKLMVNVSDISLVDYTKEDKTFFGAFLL
- assay info: competition ELISA on coated recombinant TL1A; competitor biotinylated TL1A-0002
Item-by-item account of Bioactivity relative to TL1A-0002
Provide the reading as a plain figure in fold.

Example results:
[[record]]
binder = "TL1A-0266 (antibody, human IgG1, kappa, V domains shown, human IgG1 effector-function-minimized / human kappa) VH: QVQLVQSGAEVKKPGASVKVSCKASGYDYTYYGISWVRQAPGQGLEWMGWISTYNTNTHYAPSLQGRVTMTTDTSTSTAYMELRSLRSDDTAVYYCARESYYGSGAFRGGMDVWGQGTTVTVSS VL: DIQMTQSPSSLSASVGDRVTITCRASQSVSSYLAWYQQKPGKAPKLLIYDASNRATGVPSRFSGSGSGTDFTLTISSLQPEDFATYYCQQRSNWPWTFGQGTKVEIKR"
readout = "Bioactivity relative to TL1A-0002"
reported = 1.3

[[record]]
binder = "TL1A-0298 (antibody, V domains shown, IgG1 effector-minimized/kappa) VH: QVQLVQSGAEVKKPGASVKVSCKASGYDFTYYGIGWVRQAPGQGLEWMGWISTYNDNTHYAPSLQGRVTMTTDTSTSTAYMELRSLRSDDTAVYYCARESYYGSGAFRGGMDVWGQGTTVTVSS VL: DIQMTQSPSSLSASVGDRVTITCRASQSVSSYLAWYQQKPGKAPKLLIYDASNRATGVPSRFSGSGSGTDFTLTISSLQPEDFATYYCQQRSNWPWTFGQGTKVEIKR"
readout = "Bioactivity relative to TL1A-0002"
reported = 5


Request: Please look up its Bioactivity relative to TL1A-0002: TL1A-0306 (antibody, human IgG1, kappa, V domains shown, human IgG1 effector-function-minimized / human kappa) VH: QVQLVQSGAEVKKPGASVKVSCKASGYDFTYYGIGWVRQAPGQGLEWMGWISTYNTVTHYAPSLQGRVTMTTDTSTSTAYMELRSLRSDDTAVYYCARESYYGSGAFRGGMDVWGQGTTVTVSS VL: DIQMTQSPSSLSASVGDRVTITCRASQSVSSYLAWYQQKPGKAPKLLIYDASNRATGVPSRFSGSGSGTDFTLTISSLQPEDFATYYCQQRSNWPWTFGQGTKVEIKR
Result: 3.1

Request: Would you mind telling me what Bioactivity relative to TL1A-0002 value was observed for TL1A-0255 (antibody, V domains shown, IgG1 effector-minimized/kappa) VH: QVQLVQSGAEVKKPGASVKVSCKASGYDFTYYGISWVRQAPGQGLEWMGWISTYGGNTHYAPSLQGRVTMTTDTSTSTAYMELRSLRSDDTAVYYCARESYYGSGAHRGGMDVWGQGTTVTVSS VL: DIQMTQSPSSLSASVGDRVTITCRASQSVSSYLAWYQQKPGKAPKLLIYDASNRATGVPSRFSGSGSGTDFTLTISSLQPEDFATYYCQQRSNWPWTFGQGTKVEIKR ?
Result: 7.6

Request: Which Bioactivity relative to TL1A-0002 value belongs to TL1A-0273 (antibody, human IgG1, kappa, V domains shown, human IgG1 effector-function-minimized / human kappa) VH: QVQLVQSGAEVKKPGASVKVSCKASGYDFSYYGISWVRQAPGQGLEWMGWISTYNDNTHYAQKLQGRVTMTTDTSTSTAYMELRSLRSDDTAVYYCARESYYGSGAHRGGMDVWGQGTTVTVSS VL: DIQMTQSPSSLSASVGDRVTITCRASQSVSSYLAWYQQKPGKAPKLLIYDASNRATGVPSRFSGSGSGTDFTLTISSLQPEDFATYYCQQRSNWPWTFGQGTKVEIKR ?
Result: 2.2
